- measured-target: ERK5 (Homo sapiens, UniProt Q13164)
- Construct: made in house
- Sequence (Q13164 whole entry): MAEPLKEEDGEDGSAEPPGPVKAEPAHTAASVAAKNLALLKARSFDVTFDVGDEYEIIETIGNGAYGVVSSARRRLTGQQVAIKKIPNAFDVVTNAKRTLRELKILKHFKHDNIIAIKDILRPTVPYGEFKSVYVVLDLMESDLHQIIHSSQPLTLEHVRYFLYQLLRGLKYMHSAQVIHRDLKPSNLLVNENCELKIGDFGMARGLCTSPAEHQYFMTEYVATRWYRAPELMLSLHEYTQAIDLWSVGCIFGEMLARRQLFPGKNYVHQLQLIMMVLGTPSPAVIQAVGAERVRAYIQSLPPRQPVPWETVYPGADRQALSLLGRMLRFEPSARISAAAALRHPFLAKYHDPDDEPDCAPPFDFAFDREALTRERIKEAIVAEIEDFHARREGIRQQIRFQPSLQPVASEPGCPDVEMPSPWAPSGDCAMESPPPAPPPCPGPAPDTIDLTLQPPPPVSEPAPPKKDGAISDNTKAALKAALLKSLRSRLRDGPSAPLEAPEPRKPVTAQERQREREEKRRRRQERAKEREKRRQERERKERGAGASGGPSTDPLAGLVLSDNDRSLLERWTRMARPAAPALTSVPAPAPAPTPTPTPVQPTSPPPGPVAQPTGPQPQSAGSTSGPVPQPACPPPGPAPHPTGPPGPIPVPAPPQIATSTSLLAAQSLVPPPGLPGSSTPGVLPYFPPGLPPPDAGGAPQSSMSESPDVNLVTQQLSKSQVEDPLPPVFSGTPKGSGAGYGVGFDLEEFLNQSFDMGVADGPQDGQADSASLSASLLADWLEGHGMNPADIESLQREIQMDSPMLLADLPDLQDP
- procedure-text: ERK5 IMAP assay (fluorescence polarisation)
- Assay type: biochemical
- assay-setup: average (e.g. geometric mean) where more than one data point; read-out: ERK5 IC50
property-name: pIC50
A value of pIC50 is the negative decimal logarithm of a concentration given in moles per litre.

Exercise: What measured pIC50 goes with CCc1cccc(F)c1C(=O)c1c[nH]c(C(=O)NC2CCNCC2)c1 ?
Solution: 5.30

Exercise: What measured pIC50 goes with CCOc1ccc(Cl)c(C(=O)c2c[nH]c(C(=O)Nc3cnn(C)c3)c2)c1F ?
Solution: 6.69

Exercise: What measured pIC50 goes with O=C(NC1CCNCC1)c1cc(C(=O)c2cc(Cl)ccc2F)c[nH]1 ?
Solution: 5.78

Exercise: What measured pIC50 goes with O=C(Nc1ccc(OC2CCNCC2)nc1)c1cc(C(=O)c2c(Cl)ccc(Cl)c2F)c[nH]1 ?
Solution: 7.97

Exercise: What measured pIC50 goes with O=C(Nc1ccnc(Cl)c1)c1cc(C(=O)c2c(F)cccc2Cl)c[nH]1 ?
Solution: 5.63

Exercise: What measured pIC50 goes with O=C(Nc1cnc(N2CCOCC2)nc1)c1cc(C(=O)c2c(Cl)ccc(Cl)c2F)c[nH]1 ?
Solution: 5.82

====

Please provide measured pIC50 for the entries that follow.
- measured-target: ERK5 (Homo sapiens)
- Construct: made in house
- procedure-text: ERK5 IMAP assay (fluorescence polarisation)
- Assay type: biochemical
- assay-setup: average (e.g. geometric mean) where more than one data point; read-out: ERK5 IC50
A value of pIC50 is the negative decimal logarithm of a concentration given in moles per litre.

Exercise: Notebook entry, ERK5 (Homo sapiens) assay: pIC50 of COCCN(CCOC)Cc1ccc(NC(=O)c2cc(C(=O)c3c(Cl)ccc(Cl)c3F)c[nH]2)cn1 = ?
Solution: 6.93

Exercise: Notebook entry, ERK5 (Homo sapiens) assay: pIC50 of O=C(Nc1ccc(CN2CCCCC2)nc1)c1cc(C(=O)c2c(Cl)ccc(Cl)c2F)c[nH]1 = ?
Solution: 8.05

Exercise: Notebook entry, ERK5 (Homo sapiens) assay: pIC50 of O=C(Nc1ccncn1)c1cc(C(=O)c2c(F)cccc2Cl)c[nH]1 = ?
Solution: 5.94

Exercise: Notebook entry, ERK5 (Homo sapiens) assay: pIC50 of COc1ncccc1NC(=O)c1cc(C(=O)c2c(Cl)ccc(Cl)c2F)c[nH]1 = ?
Solution: 5.93

Exercise: Notebook entry, ERK5 (Homo sapiens) assay: pIC50 of O=C(Nc1cnc(N2CCN(C3CC3)CC2)nc1)c1cc(C(=O)c2c(Cl)ccc(Cl)c2F)c[nH]1 = ?
Solution: 5.76

Exercise: Notebook entry, ERK5 (Homo sapiens) assay: pIC50 of O=C(Nc1cccnc1)c1cc(C(=O)c2c(F)ccc(F)c2F)c[nH]1 = ?
Solution: 6.40

Exercise: Notebook entry, ERK5 (Homo sapiens) assay: pIC50 of O=C(NC1CCNCC1)c1cc(C(=O)c2c(F)ccc(F)c2F)c[nH]1 = ?
Solution: 6.21

Exercise: Notebook entry, ERK5 (Homo sapiens) assay: pIC50 of O=C(Nc1cc[nH]c(=O)n1)c1cc(C(=O)c2c(F)cccc2Br)c[nH]1 = ?
Solution: 4.47

Exercise: Notebook entry, ERK5 (Homo sapiens) assay: pIC50 of O=Cc1ccc(F)c(C(=O)c2c[nH]c(C(=O)Nc3cccnc3)c2)c1F = ?
Solution: 5.13

Exercise: Notebook entry, ERK5 (Homo sapiens) assay: pIC50 of COc1ccc(Cl)c(C(=O)c2c[nH]c(C(=O)Nc3cncnc3)c2)c1F = ?
Solution: 6.69

Exercise: Notebook entry, ERK5 (Homo sapiens) assay: pIC50 of O=C(Nc1ccc(NCCN2CCCC2)nc1)c1cc(C(=O)c2c(Cl)ccc(Cl)c2F)c[nH]1 = ?
Solution: 8.15

Exercise: Notebook entry, ERK5 (Homo sapiens) assay: pIC50 of Cn1cc(NC(=O)c2cc(C(=O)c3c(F)cccc3Cl)c[nH]2)cn1 = ?
Solution: 6.11

Exercise: Notebook entry, ERK5 (Homo sapiens) assay: pIC50 of O=C(Nc1ccncn1)c1cc(C(=O)c2c(F)cccc2F)c[nH]1 = ?
Solution: 5.67

Exercise: Notebook entry, ERK5 (Homo sapiens) assay: pIC50 of COc1ccc(Cl)c(C(=O)c2c[nH]c(C(=O)Nc3cnn(C)c3)c2)c1F = ?
Solution: 7.07

Exercise: Notebook entry, ERK5 (Homo sapiens) assay: pIC50 of CN1CCC(NC(=O)c2cc(C(=O)c3c(F)ccc(F)c3F)c[nH]2)CC1 = ?
Solution: 6.24

Exercise: Notebook entry, ERK5 (Homo sapiens) assay: pIC50 of Cc1ccc(F)c(C(=O)c2c[nH]c(C(=O)NC3CCN(C)CC3)c2)c1 = ?
Solution: 5.36

Exercise: Notebook entry, ERK5 (Homo sapiens) assay: pIC50 of Cc1cc(NC(=O)c2cc(C(=O)c3c(F)cccc3Cl)c[nH]2)nc(C)n1 = ?
Solution: 5.38

Exercise: Notebook entry, ERK5 (Homo sapiens) assay: pIC50 of CN(c1ncc(NC(=O)c2cc(C(=O)c3c(Cl)ccc(Cl)c3F)c[nH]2)cn1)C1CCNCC1 = ?
Solution: 7.70

Exercise: Notebook entry, ERK5 (Homo sapiens) assay: pIC50 of O=C(Nc1cccnc1)c1cc(C(=O)c2c(Cl)ccc(Br)c2F)c[nH]1 = ?
Solution: 7.18

Exercise: Notebook entry, ERK5 (Homo sapiens) assay: pIC50 of Cc1cc(NC(=O)c2cc(C(=O)c3c(F)cccc3Br)c[nH]2)nc(C)n1 = ?
Solution: 5.31

Exercise: Notebook entry, ERK5 (Homo sapiens) assay: pIC50 of CN1CCC(NC(=O)c2cc(C(=O)c3c(Cl)ccc(Cl)c3F)c[nH]2)CC1 = ?
Solution: 6.94

Exercise: Notebook entry, ERK5 (Homo sapiens) assay: pIC50 of CN1CCC(N(C)c2ncc(NC(=O)c3cc(C(=O)c4c(Cl)ccc(Cl)c4F)c[nH]3)cn2)CC1 = ?
Solution: 7.68

Exercise: Notebook entry, ERK5 (Homo sapiens) assay: pIC50 of CCc1ncccc1NC(=O)c1cc(C(=O)c2c(Cl)ccc(Cl)c2F)c[nH]1 = ?
Solution: 5.98

Exercise: Notebook entry, ERK5 (Homo sapiens) assay: pIC50 of O=C(Nc1cc[nH]c(=O)n1)c1cc(C(=O)c2c(F)cccc2Cl)c[nH]1 = ?
Solution: 5.53

Cited source: patent US10344017B2
